MEASURED TARGET: T1, canine PepT1 (cPepT1) (canine, UniProt Q8WMX5 1-708)
T1 sequence: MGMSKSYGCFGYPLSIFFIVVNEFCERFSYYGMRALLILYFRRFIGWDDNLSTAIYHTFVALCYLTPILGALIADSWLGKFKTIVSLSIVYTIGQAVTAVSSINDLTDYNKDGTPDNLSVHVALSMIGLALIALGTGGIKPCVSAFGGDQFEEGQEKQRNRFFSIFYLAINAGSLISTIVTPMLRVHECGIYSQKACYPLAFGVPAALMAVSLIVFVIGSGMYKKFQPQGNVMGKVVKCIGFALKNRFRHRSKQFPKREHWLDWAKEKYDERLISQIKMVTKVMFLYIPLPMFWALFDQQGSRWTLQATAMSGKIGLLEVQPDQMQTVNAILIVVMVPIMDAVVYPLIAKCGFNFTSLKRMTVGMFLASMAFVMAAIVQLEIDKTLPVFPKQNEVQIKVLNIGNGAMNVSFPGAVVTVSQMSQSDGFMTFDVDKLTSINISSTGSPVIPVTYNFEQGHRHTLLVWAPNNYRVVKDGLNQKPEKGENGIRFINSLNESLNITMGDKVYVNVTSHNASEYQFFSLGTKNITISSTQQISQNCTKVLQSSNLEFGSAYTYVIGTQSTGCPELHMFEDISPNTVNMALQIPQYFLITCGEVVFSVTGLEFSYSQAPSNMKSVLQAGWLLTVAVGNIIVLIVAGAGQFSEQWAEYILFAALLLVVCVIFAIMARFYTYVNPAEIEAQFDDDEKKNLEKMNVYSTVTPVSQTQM
ASSAY COMMENT: cell-based or functional assay
Square brackets hold non-standard residues; d marks the D form. Ends that are not written are not given here. βAla = NCCC(=O)O
RECORDED METRIC: % inhibition of H+-dependent GlySar uptake (1 mM substrate, 100 µM GlySar, MDCK cells) (%)
Answer with a number only, understood to be in %.

// GGGG [[Gly]4] : % inhibition of H+-dependent GlySar uptake (1 mM substrate, 100 µM GlySar, MDCK cells) value = 19

// GGGGG [[Gly]5] : % inhibition of H+-dependent GlySar uptake (1 mM substrate, 100 µM GlySar, MDCK cells) value = 9

// [βAla]-His [Carnosine (β-AlaHis)] : % inhibition of H+-dependent GlySar uptake (1 mM substrate, 100 µM GlySar, MDCK cells) value = 50

// MGMM [MetGlyMetMet (SEQ ID NO:10)] : % inhibition of H+-dependent GlySar uptake (1 mM substrate, 100 µM GlySar, MDCK cells) value = 50

// LW [LeuTrp] : % inhibition of H+-dependent GlySar uptake (1 mM substrate, 100 µM GlySar, MDCK cells) value = 113
